Attribution: ChEMBL document CHEMBL4689842

- Tested on: HEK-293T
- Protocol Text: Multiplex assay against HEK293T
- Assay type: toxicity, cell-based
- Conditions: human, 24 h, 1 µM, compound concentration 1 uM, replicate 2
Measure Name: Population Healthy Nuclei (%)

Reference set, count: 3
>>> print(df.to_string())
                                   compound  tested_system                   measure_name  value_reported
0  CCCS(=O)(=O)Nc1ccc(F)c(C(=O)c2c[nH]c3ncc(Cl)cc23)c1F       HEK-293T  Population Healthy Nuclei (%)             77%
1  CCOC(=O)c1c(C)[nH]c2ccc3c(c12)CN1CCc2cc(OC)ccc2C1O3 (stereo not drawn)       HEK-293T  Population Healthy Nuclei (%)             45%
2  COc1cccc2cc(-c3nc([C@H]4CC[C@H](C(=O)O)CC4)n4ncnc(N)c34)[nH]c12       HEK-293T  Population Healthy Nuclei (%)             83%

Supply Population Healthy Nuclei (%) value. Item: "CCn1cc(-c2ccnc3[nH]c(-c4cccc(CN(C)C)c4)cc23)c(-c2ccc(NC(=O)N(C)C)cc2)n1" 85%

Please list Population Healthy Nuclei (%) recorded for the compound CN1CCC(=C2c3ccccc3CC(=O)c3sccc32)CC1.O=C(O)/C=C/C(=O)O [KETOTIFEN FUMARATE] 55%

Specify measured Population Healthy Nuclei (%) for "CCNc1cc(N[C@H]2CC[C@H](O)CC2)nc(Nc2ccc3c(ccn3Cc3ccccc3)c2)n1" . 83%

Dear colleague, please send me the reported Population Healthy Nuclei (%) for COc1cc2ncnc(Nc3ccc(F)c(Cl)c3)c2cc1NC(=O)/C=C/CN1CCCCC1 [DACOMITINIB ANHYDROUS] when you can. 79%

State, in one line, measured Population Healthy Nuclei (%) of "COc1ccc(-c2ccc3c(N4CCOCC4)nc(N4C[C@@H](C)O[C@@H](C)C4)nc3n2)cc1CO" 64%

* * *

- Test system: Fibroblast
- Protocol Text: Multiplex assay against human fibroblast
- Assay type: toxicity, cell-based
- Conditions: 12 h, 1 µM, compound concentration 1 uM, replicate 2
Measure Name: Population Mitotic Cells (%)
Give just the numeric value; % need not be written.

See these solved cases before continuing.
Molecule	Unit Tag	Population Mitotic Cells (%)
CN1C2CCC1CC(OC(c1ccc(F)cc1)c1ccc(F)cc1)C2.Cl (centres undefined)	%	0
COc1cccc2cc(-c3nc([C@H]4CC[C@H](C(=O)O)CC4)n4ncnc(N)c34)[nH]c12	%	42
CCn1c(=O)c(-c2ccc(-c3cncs3)cc2Cl)cc2cnc(Nc3ccc(N4CCN(C)CC4)cc3)nc21	%	25
COc1cc2ncnc(Nc3ccc(F)c(Cl)c3)c2cc1NC(=O)/C=C/CN1CCCCC1 [DACOMITINIB ANHYDROUS]	%	33
O=C(Nc1ccc(-c2ccnc(Nc3ccc(N4CCOCC4)cc3)n2)cc1)[C@@H]1CCCN1	%	66
CN[C@@H]1C[C@H]2O[C@@](C)([C@@H]1OC)n1c3ccccc3c3c4c(c5c6ccccc6n2c5c31)C(=O)NC4	%	28

Note: attention shifts to another entry.
Tell me Population Mitotic Cells (%) of "Cc1cc(C)c(S(=O)(=O)N(Cc2ccc(-c3cccc(S(C)(=O)=O)c3)cc2)Cc2ccc(C(F)(F)F)o2)c(C)c1" when tested on Fibroblast. 33

* * *

Overview of reported Population Membrane Permeable-Phenotype (%) across a group of compounds:
- Tested on: U2OS
- Protocol Text: Multiplex assay against U2OS
- Type: toxicity, cell-based
- Conditions: human, 24 h, 1 µM, compound concentration 1 uM, replicate 1
I only need the number, in %, no unit after it.

Compound	Value Reported
COc1ccc(S(=O)(=O)N(CCO)c2ccccc2CN(C)C/C=C/c2ccc(Cl)cc2)cc1.O=P(O)(O)O	84
O=C(Cc1ccc(-c2ccc(OCCN3CCOCC3)cc2)cn1)NCc1ccccc1	9
CCN1CCN(c2ccc(Nc3cc(N(C)C(=O)Nc4c(Cl)c(OC)cc(OC)c4Cl)ncn3)cc2)CC1	30
C=C1/C(=C\C=C2/CCC[C@]3(C)[C@@H]([C@H](C)/C=C/[C@H](C)C(C)C)CC[C@@H]23)C[C@@H](O)C[C@@H]1O	3

Give the value of Population Membrane Permeable-Phenotype (%) reported for the following: "O=C(Nc1ccc(-c2ccnc(Nc3ccc(N4CCOCC4)cc3)n2)cc1)[C@@H]1CCCN1" 7

Report Population Membrane Permeable-Phenotype (%), nothing else, for this compound: CN(C)C(=O)C(CCN1CCC(O)(c2ccc(Cl)cc2)CC1)(c1ccccc1)c1ccccc1.Cl [LOPERAMIDE HYDROCHLORIDE] 6

Fill in reported Population Membrane Permeable-Phenotype (%) for this entry: "COc1ccc(-c2ccc3c(N4CCOCC4)nc(N4C[C@@H](C)O[C@@H](C)C4)nc3n2)cc1CO" 6

Supply recorded Population Membrane Permeable-Phenotype (%) for CN1C2CCC1CC(OC(c1ccc(F)cc1)c1ccc(F)cc1)C2.Cl (stereo not given) here. 1

Using known records, supply Population Membrane Permeable-Phenotype (%) for "Cn1nc(C(F)(F)F)cc1-c1cnc(N2CCc3cc(S(=O)(=O)Nc4c(F)cc(Cl)cc4F)cc(N4CCCC4=O)c32)nc1" 12

Answer with the recorded Population Membrane Permeable-Phenotype (%) for the compound listed here: "CCn1c(=O)c(-c2ccc(-c3cncs3)cc2Cl)cc2cnc(Nc3ccc(N4CCN(C)CC4)cc3)nc21" 6

Return the recorded Population Membrane Permeable-Phenotype (%) value; entry: "CCc1cccc(CC)c1NC(=O)c1nn(C)c2c1CCc1cnc(Nc3ccc(N4CCN(C)CC4)cc3OC)nc1-2" 100

* * *

Items are presented alongside their recorded Population Fragmented Nuclei (%).
- System: HEK-293T
- Protocol Text: Multiplex assay against HEK293T
- Assay type: toxicity, cell-based
- Conditions: human, 48 h, 1 µM, compound concentration 1 uM, replicate 1
# number only, unit % dropped from output

Consider the reported Population Fragmented Nuclei (%) for these compounds:
                                   compound                      measure_name  value_reported
0  CCOc1cc(C(=O)N2CCC(N3CCN(C)CC3)CC2)ccc1Nc1ncc2c(n1)N(C1CCCC1)c1ccccc1C(=O)N2C  Population Fragmented Nuclei (%)              22
1  CCCn1c(=O)c2[nH]c(-c3cnn(Cc4cccc(C(F)(F)F)c4)c3)nc2n(CC)c1=O [GS 6201]  Population Fragmented Nuclei (%)              27
2  CCn1c(=O)c(-c2ccc(-c3cncs3)cc2Cl)cc2cnc(Nc3ccc(N4CCN(C)CC4)cc3)nc21  Population Fragmented Nuclei (%)              14
3  CCN1CCN(Cc2ccc(Nc3ncc(F)c(-c4cc(F)c5nc(C)n(C(C)C)c5c4)n3)nc2)CC1.CS(=O)(=O)O  Population Fragmented Nuclei (%)              29
4  O=C1N/C(=N/c2ccccc2F)S/C1=C\c1ccc(C(=O)O)cc1  Population Fragmented Nuclei (%)              20
5  O=C(Nc1ccc(Cl)cc1)Nc1cccc(-c2cccc(N3CCCC3)n2)c1  Population Fragmented Nuclei (%)              11

Please indicate Population Fragmented Nuclei (%) recorded for "CCCS(=O)(=O)c1nc(NC2CC2)cc(-c2ccc3c(ccn3C3CC(C)(C)NC(C)(C)C3)c2)n1" 15

Specify Population Fragmented Nuclei (%) for O=C(Nc1ccc(-n2nc(-c3cccnc3)cc2C(F)(F)F)cn1)c1ccc(-c2ccccc2)c(F)c1 [BI 2049] and stop. 27

* * *

- System: Fibroblast
- Protocol Text: Multiplex assay against human fibroblast
- Type: toxicity, cell-based
- Conditions: 12 h, 1 µM, compound concentration 1 uM, replicate 1
Friendly reminder: Population Tubulin-Different-Phenotype (%) below 50% is yes, at or above is no.

Consider the molecule COc1cc2ncnc(Nc3ccc(F)c(Cl)c3)c2cc1NC(=O)/C=C/CN1CCCCC1 [DACOMITINIB ANHYDROUS] . Is its Population Tubulin-Different-Phenotype (%) strictly less than 50%? yes

Problem: For the molecule CN(C)C(=O)C(CCN1CCC(O)(c2ccc(Cl)cc2)CC1)(c1ccccc1)c1ccccc1.Cl [LOPERAMIDE HYDROCHLORIDE] , is Population Tubulin-Different-Phenotype (%) under 50%? no

is_below(Population Tubulin-Different-Phenotype (%), 50%) for "CN1CCN(C(=O)C(C)(C)c2ccc(C(=O)Nc3cn4cc(-c5cc(C(C)(C)C)cc(C(C)(C)C)c5)ccc4n3)cc2)CC1" ? yes

For this molecule, is Population Tubulin-Different-Phenotype (%) lower than 50%? "CCNc1cc(N[C@H]2CC[C@H](O)CC2)nc(Nc2ccc3c(ccn3Cc3ccccc3)c2)n1" yes

Report whether reported Population Tubulin-Different-Phenotype (%) is lower than 50% (strictly) for "CNC(=O)c1ccc(Nc2nc(OC3CCCC3)c3c(-c4ccc5nc(C)oc5c4)c[nH]c3n2)c(OC)c1" no

Given CCOC(=O)c1c(C)[nH]c2ccc3c(c12)CN1CCc2cc(OC)ccc2C1O3 (configuration not stated) , is recorded Population Tubulin-Different-Phenotype (%) strictly lower than 50%? yes

Please determine if "COc1ccc(S(=O)(=O)N(CCO)c2ccccc2CN(C)C/C=C/c2ccc(Cl)cc2)cc1.O=P(O)(O)O" is below 50% in terms of Population Tubulin-Different-Phenotype (%). no

Criterion: Population Tubulin-Different-Phenotype (%) strictly below 50%. Is it met by "NC(=O)c1cccc(-c2cc(Nc3ccc(OC(F)(F)F)cc3)ncn2)c1" ? yes

Dear reviewer, please state whether "CCOc1cc(C(=O)N2CCC(N3CCN(C)CC3)CC2)ccc1Nc1ncc2c(n1)N(C1CCCC1)c1ccccc1C(=O)N2C" has Population Tubulin-Different-Phenotype (%) strictly beneath 50%. no

Does the reported Population Tubulin-Different-Phenotype (%) of "CNc1cc(Oc2cc(C(=O)Nc3cc(N4CCN(C)CC4)cc(C(F)(F)F)c3)ccc2C)ncn1" stay below 50%? no

Regarding "O=C(Nc1cccnn1)N1CCC(=Cc2cccc(Oc3ccc(C(F)(F)F)cn3)c2)CC1" , kindly confirm whether its Population Tubulin-Different-Phenotype (%) is beneath 50%. yes

Population Tubulin-Different-Phenotype (%) strictly < 50% for this molecule? "O=C(Cc1ccc(-c2ccc(OCCN3CCOCC3)cc2)cn1)NCc1ccccc1" yes

Is Population Tubulin-Different-Phenotype (%) of "O=C1N/C(=N/c2ccccc2F)S/C1=C\c1ccc(C(=O)O)cc1" strictly below 50%? yes

Would you kindly verify if Population Tubulin-Different-Phenotype (%) of "Cl.O=C(c1ccc(Nc2nccc(-c3cc4ccccc4s3)n2)cc1)N1CCC(N2CCCC2)CC1" is strictly less than 50%? yes

Regarding "COc1ccc(-c2ccc3c(N4CCOCC4)nc(N4C[C@@H](C)O[C@@H](C)C4)nc3n2)cc1CO" , kindly confirm whether its Population Tubulin-Different-Phenotype (%) is beneath 50%. yes

Dear colleague, could you confirm whether Population Tubulin-Different-Phenotype (%) of "Cn1nc(C(F)(F)F)cc1-c1cnc(N2CCc3cc(S(=O)(=O)Nc4c(F)cc(Cl)cc4F)cc(N4CCCC4=O)c32)nc1" falls below 50%? Thanks. no

Strictly below 50% in Population Tubulin-Different-Phenotype (%)? "C=CCn1c(=O)c2cnc(Nc3ccc(N4CCN(C)CC4)cc3)nc2n1-c1cccc(C(C)(C)O)n1" yes
